- Measured Target: Gastrin receptor (gastric glands) (Cavia porcellus, UniProt H0VZC5)
- Construct: The washed guinea pig gastric glands prepared as above were resuspended; from tissue; host or cells: guinea pig gastric mucosal glands (male Hartley)
- Experiment Description: Gastrin Receptor Binding in Guinea Pig Gastric Glands
- Set-up: species or system guinea pig (male Hartley)
- Measurement Parameters: IC50 ^125 I-Gastrin Gastric Glands, 25° C., 30 minutes
Binned IC50; ranges: lower segment (below 2 µM), middle segment (2 µM to below 20 µM), upper segment (20 µM or more)

1) O=C(NCC1N=C(c2ccccc2F)c2ccccc2NC1=O)c1ccsc1 (racemic) [Example 67] = upper segment
2) O=C(NC1N=C(c2ccccc2F)c2ccccc2N(C(=O)c2ccc(Cl)cc2)C1=O)c1ccc(Cl)cc1 (racemic) [Example 177] = lower segment
3) O=C1Nc2ccc(Cl)cc2C(c2ccccc2)=N[C@@H]1COCc1ccccc1 [Example 15] = upper segment
4) CN1C(=O)[C@H](N)N=C(c2ccccc2)c2ccccc21 [Example 85b] = upper segment
5) CN1C(=O)[C@@H](N)N=C(c2ccccc2)c2ccccc21 [Example 85a] = upper segment
6) CSc1ccc(C(=O)NC2N=C(c3ccccc3)c3ccccc3NC2=O)cc1 (racemic) [Example 143] = middle segment
7) O=C(NC1N=C(c2ccccc2)c2ccccc2NC1=O)c1c[nH]c2ccccc12 (racemic) [Example 109] = middle segment
8) O=C(CCCc1c[nH]c2ccccc12)NC1N=C(c2ccccc2)c2ccccc2NC1=O (racemic) [Example 97] = upper segment
9) O=C(NCC1N=C(c2ccccc2F)c2ccccc2NC1=O)OCc1ccccc1 (racemic) [Example 66] = middle segment
10) O=C(NC1N=C(c2ccccc2F)c2ccccc2NC1=O)c1ccccc1Cl (racemic) [Example 174] = middle segment
11) O=C(O)CN1C(=O)C(NC(=O)c2cc3ccccc3[nH]2)N=C(c2ccccc2)c2ccccc21 (racemic) [Example 78] = lower segment
12) O=C1Nc2ccccc2C(c2ccccc2F)=NC1CNCC1N=C(c2ccccc2F)c2ccccc2NC1=O (racemic) [Example 69] = upper segment
13) O=C(Cc1cccc2sccc12)NC1N=C(c2ccccc2F)c2ccccc2NC1=O (racemic) [Example 110] = middle segment
14) CC(C)(C)c1ccc(C(=O)NC2N=C(c3ccccc3)c3ccccc3NC2=O)cc1 (racemic) [Example 146] = upper segment
15) O=C(NCC1N=C(c2ccccc2F)c2ccccc2NC1=O)c1cc2ccccc2[nH]1 (racemic) [Example 68] = upper segment
16) O=C(NC1N=C(c2ccccc2)c2ccccc2NC1=O)c1cc(Cl)cc(Cl)c1 (racemic) [Example 147] = upper segment
17) CCOC(=O)CN1C(=O)C(NC(=O)Nc2ccc(Cl)cc2)N=C(c2ccccc2)c2ccccc21 (stereo not shown) [Example 204] = lower segment
18) CN1C(=O)C(NC(=O)Nc2ccc(Br)cc2)N=C(c2ccccc2)c2ccccc21 (stereo not shown) [Example 255] = lower segment
19) CN1C(=O)C(NC(=O)c2ccc(Cl)cc2N)N=C(c2ccccc2)c2ccccc21 (stereo not shown) [Example 196] = lower segment
20) Cc1ccc(NC(=O)N[C@@H]2N=C(c3ccccc3)c3ccccc3N(C)C2=O)cc1 [Example 293] = lower segment
21) CC(C)(C)OC(=O)N[C@@H](Cc1c[nH]c2ccccc12)C(=O)NC1N=C(c2ccccc2)c2ccccc2NC1=O (mixture of isomers) [Example 77] = upper segment
22) CN1C(=O)C(NC(=O)c2ccc(Cl)cc2)[N+]([O-])=C(c2ccccc2F)c2ccccc21 (racemic) [Example 142] = middle segment
23) CN1C(=O)[C@@H](Cc2c[nH]c3ccccc23)N=C(c2ccccc2)c2ccccc21 [Example 210] = upper segment
24) CCOC(=O)CN1C(=O)C(NC(=O)c2ccccc2Cl)N=C(c2ccccc2F)c2ccccc21 (stereo not shown) [Example 188] = lower segment
25) CN1C(=O)C(NC(=O)Nc2ccc(Cl)cc2Cl)N=C(c2ccccc2)c2ccccc21 (stereo not shown) [Example 258] = lower segment
26) O=C(NC1N=C(c2ccccc2)c2ccccc2NC1=O)c1ccc(C(F)(F)F)cc1 (racemic) [Example 145] = upper segment
27) O=C(NC1N=C(c2ccccc2F)c2ccccc2NC1=O)c1ccc[nH]1 (racemic) [Example 158] = upper segment
28) COc1ccc(C(=O)NC2N=C(c3ccccc3F)c3ccccc3NC2=O)cc1 (racemic) [Example 136] = middle segment
29) CCCCCc1ccc(C(=O)NC2N=C(c3ccccc3F)c3ccccc3N(C)C2=O)cc1 (stereo not shown) [Example 223] = upper segment

* * *

- Measured Target: CCK receptor (brain, cerebral cortex) (Cavia porcellus, UniProt H0VZC5)
- Construct: Cerebral cortex was dissected and used as a receptor source; from tissue; host or cells: guinea pig cerebral cortex membranes (male Hartley)
- Sequence (H0VZC5 1-426): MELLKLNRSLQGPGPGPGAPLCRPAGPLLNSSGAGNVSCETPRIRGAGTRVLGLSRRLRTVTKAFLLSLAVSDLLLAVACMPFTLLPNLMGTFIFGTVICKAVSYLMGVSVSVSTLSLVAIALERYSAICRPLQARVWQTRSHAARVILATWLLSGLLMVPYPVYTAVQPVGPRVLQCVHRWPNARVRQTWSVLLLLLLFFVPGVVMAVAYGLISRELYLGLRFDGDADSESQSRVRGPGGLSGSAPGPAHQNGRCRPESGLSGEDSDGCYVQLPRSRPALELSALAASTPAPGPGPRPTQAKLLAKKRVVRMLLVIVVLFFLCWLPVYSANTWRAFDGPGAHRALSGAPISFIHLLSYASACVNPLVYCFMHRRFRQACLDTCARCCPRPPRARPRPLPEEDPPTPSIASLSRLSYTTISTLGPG
- Experiment Description: biochemical
- Type: binding, Male Hartley guinea pigs
- Measurement Parameters: IC50 ^125 I-CCK Brain, guinea pig cerebral cortex, ^125 I-CCK-33, 25° C., 2 hours
pIC50: −log10 of the molar value.
Readout Name: pIC50

1) CCCCCc1ccc(C(=O)NC2N=C(c3ccccc3F)c3ccccc3N(C)C2=O)cc1 (stereo not shown) = < 4.00
2) CCOC(=O)CCN1C(=O)C(NC(=O)Nc2ccc(Cl)cc2)N=C(c2ccccc2)c2ccccc21 (stereo not shown) = 8.29
3) CC(C)C[C@H](NC(=O)OC(C)(C)C)C(=O)N1CC(C[C@H]2N=C(c3ccccc3F)c3ccccc3NC2=O)c2ccccc21 (stereo partly shown) = < 4.00
4) O=C1[C@H](Cc2c[nH]c3ccccc23)N=C(c2ccccc2)c2cc(Cl)ccc2N1Cc1ccccc1 = < 4.00

* * *

- Measured Target: CCK receptor (brain, cerebral cortex) (Cavia porcellus, UniProt H0VZC5)
- Construct: Cerebral cortex was dissected and used as a receptor source; from tissue; host or cells: guinea pig cerebral cortex membranes (male Hartley)
- Experiment Description: biochemical
- Type: binding, Male Hartley guinea pigs
- Measurement Parameters: IC50 ^125 I-CCK Brain, guinea pig cerebral cortex, ^125 I-CCK-33, 25° C., 2 hours
Readout Name: IC50 (µM)

1. O=C1Nc2ccccc2C(c2ccccc2)=NC1Cc1c[nH]c2ccc(Br)cc12 (racemic) [Example 57] = 100
2. CN1C(=O)C(NC(=O)Nc2ccccc2[N+](=O)[O-])N=C(c2ccccc2)c2ccccc21 (stereo not shown) [Example 270] = 1.2
3. O=C(NC1N=C(c2ccccc2)c2ccccc2NC1=O)c1cc2ccccc2[nH]1 (racemic) [Example 73] = 8
4. CN1C(=O)C(NC(=O)Oc2ccc([N+](=O)[O-])cc2)N=C(c2ccccc2F)c2ccccc21 (stereo not shown) [Example 245] = 92
5. CN1C(=O)[C@H](NC(=O)c2ccc(Br)cc2)N=C(c2ccccc2)c2ccccc21 [Example 93] = 2.9
6. O=C(CNc1ccccc1)NC1N=C(c2ccccc2F)c2ccccc2NC1=O (racemic) [Example 125] = 100
7. O=C(NC1N=C(c2ccccc2)c2ccccc2NC1=O)c1ccc2ccccc2c1 (racemic) [Example 160] = 12
8. O=C1Nc2ccc(Cl)cc2C(c2ccccc2)=NC1Cc1ccc2ccccc2c1 (racemic) [Example 18] = 61
9. CCN1C(=O)[C@@H](Cc2c[nH]c3ccccc23)N=C(c2ccccc2F)c2ccccc21 [Example 36] = 30
10. O=C(Cc1c[nH]c2ccccc12)NC1N=C(c2ccccc2)c2ccccc2NC1=O (racemic) [Example 76] = 11
11. CC(C)CCN1C(=O)[C@@H](Cc2c[nH]c3ccccc23)N=C(c2ccccc2F)c2ccccc21 [Example 39] = 30
12. CN1C(=O)C(NC(=O)c2ccc(Cl)cc2)N=C(c2ccccc2F)c2ccccc21 (racemic) [Example 80] = 3.4
13. CN1C(=O)[C@@H](NC(=O)c2ccc(C(F)(F)F)cc2)N=C(c2ccccc2)c2ccccc21 [Example 203] = 4.6
14. CN1C(=O)[C@H](NC(=O)c2cc3ccccc3[nH]2)N=C(c2ccccc2F)c2ccccc21 [Example 89] = 1.1
15. CN1C(=O)C(NC(=O)Nc2ccc(Cl)cc2Cl)N=C(c2ccccc2)c2ccccc21 (stereo not shown) [Example 258] = 0.22
16. COc1cccc(NC(=O)NC2N=C(c3ccccc3)c3ccccc3NC2=O)c1 (stereo not shown) [Example 275] = 0.11
17. CN1C(=O)[C@@H](Cc2c[nH]c3ccccc23)N=C(c2ccccc2F)c2ccccc21 [Example 4b] = 18
18. O=C1Nc2ccccc2C(c2ccccc2)=N[C@@H]1Cc1c[nH]c2ccccc12 [Example 6] = 50
19. O=C(NC1N=C(c2ccccc2F)c2ccccc2NC1=O)c1cc2cc(F)ccc2[nH]1 (racemic) [Example 114] = 12
20. O=C(OC1N=C(c2ccccc2F)c2ccccc2NC1=O)c1ccc(Cl)cc1 (racemic) [Example 179] = 3.6
21. O=C1Nc2ccccc2C(c2ccccc2F)=N[C@@H]1CC1CNc2ccccc21 (stereo partly shown) [Example 9] = 48
22. COc1cccc(NC(=O)NC2N=C(c3ccccc3)c3ccccc3N(CC(=O)N3CCCC3)C2=O)c1 (stereo not shown) [Example 284] = 0.00034
23. CN1C(=O)C(NC(=O)c2ccc(Cl)cc2N)N=C(c2ccccc2)c2ccccc21 (stereo not shown) [Example 196] = 2.4
